tgt: human recombinant ENPP1 (Homo sapiens, UniProt P22413)
assay-explanation: ENPP1 assay with 2′,3′-cGAMP substrate (AMP-Glo)
Assay type: biochemical
measurement-context: Ki (AMP-pNP)/Ki (2′3′-cGAMP)
measure-name: Substrate Selectivity Ki Ratio AMP-pNP/2′3′cGAMP
Please reply with the value in numeric form only.

COc1cc2ncnc(-c3ccc4c(c3)CN(S(N)(=O)=O)CC4)c2cc1OC [Compound 21]
36.2
COc1cc2nc(N)nc(N3CCC(CCNS(N)(=O)=O)CC3)c2cc1OC [Compound 18]
47.7
COc1cc2ncnc(-c3ccc(CNS(N)(=O)=O)cc3)c2cc1OC [Compound 17]
48.3
COc1cc2ncnc(N3CCC4(CC3)CCN(S(C)(=O)=O)C4)c2cc1OC [Compound 19]
44.8
COc1cc2ncnc(N3CCC(CNS(N)(=O)=O)CC3)c2cc1OC [Compound 13]
86.7
COc1cc2ncc(C#N)c(N3CCC(CCNS(C)(=O)=O)CC3)c2cc1OC [Compound 7]
244

Query: Fill in reported Substrate Selectivity Ki Ratio AMP-pNP/2′3′cGAMP for this entry: COc1cc2ncnc(N3CCC4(CC3)CN(S(C)(=O)=O)C4)c2cc1OC [Compound 24]
Result: 18.7

Query: Supply reported Substrate Selectivity Ki Ratio AMP-pNP/2′3′cGAMP belonging to this compound: COc1cc2ncnc(NCc3ccc(NS(N)(=O)=O)cc3)c2cc1OC [Compound 22]
Result: 34.7

Query: Look up Substrate Selectivity Ki Ratio AMP-pNP/2′3′cGAMP of COc1cc2ncnc(N3CCN(C(=O)CNS(N)(=O)=O)CC3)c2cc1OC [Compound 15] and report it.
Result: 57.3

###

tgt: human recombinant ENPP1 (Homo sapiens, UniProt P22413)
Sequence (P22413 1-925): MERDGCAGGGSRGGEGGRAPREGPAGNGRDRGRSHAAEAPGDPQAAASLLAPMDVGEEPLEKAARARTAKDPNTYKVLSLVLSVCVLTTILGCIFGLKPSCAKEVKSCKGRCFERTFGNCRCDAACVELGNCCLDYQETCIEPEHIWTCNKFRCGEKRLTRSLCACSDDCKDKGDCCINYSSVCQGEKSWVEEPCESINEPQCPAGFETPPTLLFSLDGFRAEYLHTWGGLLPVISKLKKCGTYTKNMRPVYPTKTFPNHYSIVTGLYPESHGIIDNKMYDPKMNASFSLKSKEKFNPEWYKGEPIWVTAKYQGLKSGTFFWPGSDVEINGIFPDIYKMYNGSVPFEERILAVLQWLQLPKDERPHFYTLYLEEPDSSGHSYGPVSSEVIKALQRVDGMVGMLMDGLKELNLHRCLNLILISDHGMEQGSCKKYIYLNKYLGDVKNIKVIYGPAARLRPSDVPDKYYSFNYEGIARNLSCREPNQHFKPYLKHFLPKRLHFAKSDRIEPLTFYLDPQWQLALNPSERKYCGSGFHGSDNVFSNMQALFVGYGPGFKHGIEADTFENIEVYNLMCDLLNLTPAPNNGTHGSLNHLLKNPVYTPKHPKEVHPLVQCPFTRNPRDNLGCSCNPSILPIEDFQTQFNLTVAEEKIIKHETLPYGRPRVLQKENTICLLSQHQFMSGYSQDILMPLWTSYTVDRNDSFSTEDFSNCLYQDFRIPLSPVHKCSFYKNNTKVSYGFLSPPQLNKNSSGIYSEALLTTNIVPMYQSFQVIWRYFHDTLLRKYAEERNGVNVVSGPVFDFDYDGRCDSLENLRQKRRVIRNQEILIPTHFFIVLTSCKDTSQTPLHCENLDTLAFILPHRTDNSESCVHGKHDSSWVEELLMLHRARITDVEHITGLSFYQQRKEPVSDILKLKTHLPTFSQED
assay-explanation: ENPP1 assay with 2′,3′-cGAMP substrate (AMP-Glo)
Type: biochemical
measurement-context: Ki (AMP-pNP)/Ki (2′3′-cGAMP)
Each entry below lists one item and its recorded Substrate Selectivity Ki Ratio AMP-pNP/2′3′cGAMP value.

Known results for compounds:
COc1cc2ncnc(N3CCC(CCN)CC3)c2cc1OC [Compound 5]
>642
CCN(C)S(=O)(=O)NCCC1CCN(c2ncnc3cc(OC)c(OC)cc23)CC1 [Compound 12]
>89.0
COc1cc2ccc(=O)n(Cc3ccc(NS(N)(=O)=O)cc3)c2cc1OC [Compound 10]
>127
CS(=O)(=O)N1CCc2ccc(-c3ncnc4ccccc34)cc2C1 [Compound 8]
>158
COc1cc2nccc(Oc3ccc(NS(=O)(=O)c4ccccc4)cc3)c2cc1OC [Compound 25]
>6.80
CN1CNc2ncnc(N3CCC(CCNS(C)(=O)=O)CC3)c21 [Compound 9]
>128

Query: Determine its reported Substrate Selectivity Ki Ratio AMP-pNP/2′3′cGAMP: COc1cc2nc(-c3ccccc3)nc(N3CCC(CCNS(N)(=O)=O)CC3)c2cc1OC [Compound 23]
Result: >23.9

Query: Give Substrate Selectivity Ki Ratio AMP-pNP/2′3′cGAMP for the following compound: CNc1nc(N2CCC(CCNS(N)(=O)=O)CC2)c2cc(OC)c(OC)cc2n1 [Compound 20]
Result: >38.7
